Reference source for all entries: patent US7759345B2

System: HT-29
assay-explanation: Inhibition of cells growth by colorimetric assay (SRB), HT-29
Format: cell-based
stated-conditions: Homo sapiens, HT-29, 48 h, read-out: LC50 HT-29, HT-29; SRB, 48 hours exposure
observable: LC50 (concentration for 50% cell killing) (µM)
A number alone suffices; assume µM.

COc1cc2c(cc1OC)[C@@]1(CS[C@@H]3c4c(OC(C)=O)c(C)c5c(c4[C@H](COC1=O)N1C3[C@H]3c4c(cc(C)c(OC)c4OC)C[C@@H]([C@@H]1C#N)N3C)OCO5)NCC2 (stereo partly shown); 12.5
COc1cc2c(cc1OC(=O)c1cc3ccccc3oc1=O)CCN[C@]21CS[C@@H]2c3c(OC(C)=O)c(C)c4c(c3[C@H](COC1=O)N1C2[C@H]2c3c(cc(C)c(OC)c3O)C[C@@H]([C@@H]1O)N2C)OCO4 (stereo partly shown); 4.52
C=COC(=O)N1CCc2cc(O)c(OC)cc2[C@@]12CS[C@@H]1c3c(OC(C)=O)c(C)c4c(c3[C@H](COC2=O)N2C1[C@H]1c3c(cc(C)c(OC)c3O)C[C@@H]([C@@H]2C#N)N1C)OCO4 (stereo partly shown); 12.5

Task: Write down LC50 (concentration for 50% cell killing) measured for item COc1cc2c(cc1OC(=O)CCCl)CCN[C@]21CS[C@@H]2c3c(OC(C)=O)c(C)c4c(c3[C@H](COC1=O)N1C2[C@H]2c3c(cc(C)c(OC)c3O)C[C@@H]([C@@H]1O)N2C)OCO4 (stereo partly shown)
Result: 0.0106
